# Test Target: Mast/stem cell growth factor receptor Kit (Homo sapiens)
# Measurement Conditions: at 10 µM
residual activity vs 90%: at or above is condition met, below is condition not met.

| Compound | Assigned Label |
| --- | --- |
| O=C(CCCc1ccc(-c2ccccc2F)cc1)Nc1ccc(O)cc1 | condition met |
| Cc1cc(C)c(/C=C2\C(=O)Nc3ccccc32)[nH]1 | condition not met |
| O=C(c1ccccc1)c1ccc(N2CCOCC2)cc1O | condition met |
| N#Cc1c(NC(=O)c2cccc3ccccc23)sc2c1CCCC2 | condition met |
| COc1ccc2c(c1)c(C1=C(c3c[nH]c4ccccc34)C(=O)NC1=O)cn2CCCN(C)C | condition not met |
| COc1ccc(-c2cnc3c(-c4ccsc4)cnn3c2)cc1 | condition not met |
| CC(C)(C)c1nc2c3ccc(F)cc3c3c(=O)[nH]ccc3c2[nH]1 | condition met |
| COc1cc2c(cc1OC)-c1n[nH]c(Nc3cccc(F)c3)c1C2 | condition not met |
| Nc1ncnc2[nH]nc(Nc3ccc(F)cc3)c12 | condition met |
| CCCCc1c(-c2ccc(O)cc2)[nH]c2nccnc12 | condition not met |
| O=C(Nc1ccc(Cl)cc1)c1ccccc1NCc1ccncc1 | condition not met |
| Nc1nc(Nc2ccc(S(N)(=O)=O)cc2)nn1C(=O)c1c(F)cccc1F | condition not met |

====

# Test Target: Calcium/calmodulin-dependent protein kinase type IV (Homo sapiens) (UniProt Q16566)
# Sequence (Q16566 whole entry): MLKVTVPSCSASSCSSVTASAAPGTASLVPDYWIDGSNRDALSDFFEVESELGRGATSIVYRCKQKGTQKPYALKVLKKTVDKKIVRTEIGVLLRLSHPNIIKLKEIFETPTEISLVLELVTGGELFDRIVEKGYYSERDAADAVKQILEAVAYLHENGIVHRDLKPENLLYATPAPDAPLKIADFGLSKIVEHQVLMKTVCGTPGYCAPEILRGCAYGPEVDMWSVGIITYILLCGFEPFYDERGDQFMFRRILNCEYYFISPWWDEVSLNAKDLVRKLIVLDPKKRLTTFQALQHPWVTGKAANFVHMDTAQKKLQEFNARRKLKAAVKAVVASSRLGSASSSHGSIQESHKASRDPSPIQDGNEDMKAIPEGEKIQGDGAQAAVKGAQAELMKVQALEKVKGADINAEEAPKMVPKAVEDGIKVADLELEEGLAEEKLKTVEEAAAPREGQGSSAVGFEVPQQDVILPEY
# Measurement Conditions: at 10 µM
# residual activity binned as interval 1: < 60%; interval 2: ≥ 60% and < 80%; interval 3: ≥ 80%

| Compound | Assigned Label |
| --- | --- |
| O=c1cc(N2CCNCC2)oc2c(-c3ccccc3)cccc12 | interval 3 |
| COc1cc2nccc(Oc3ccc(NC(=O)Nc4cc(C)on4)c(Cl)c3)c2cc1OC | interval 1 |
| Nc1ncnc2c1c(-c1ccc(Oc3ccccc3)cc1)cn2C1CCCC1 | interval 3 |
| Cn1sc(=O)n(Cc2ccccc2)c1=O | interval 1 |
| Oc1cccc(-c2nc(N3CCOCC3)c3oc4ncccc4c3n2)c1 | interval 2 |
| COc1cc2nccc(Oc3ccc(NC(=S)NC(=O)c4ccccc4C)cc3)c2cc1OC | interval 3 |
| O=C1C(Cl)=C(N2C(=O)CCC2=O)C(=O)c2ccccc21 | interval 1 |
| O=C1NC(=O)C(c2cn(CCCn3ccnc3)c3ccccc23)=C1Nc1ccccc1 | interval 2 |
| NCCNc1ncc(C(N)=O)c(Nc2cccc(C(F)(F)F)c2)n1 | interval 2 |
| O=c1cc(N2CCOCC2)oc2c1ccc1ccccc12 | interval 3 |
| Cn1c2ccccc2c2c3c(c4c5ccccc5n(CCC#N)c4c21)CNC3=O | interval 1 |
| CC(C)(C)n1nc(Cc2cccc3ccccc23)c2c(N)ncnc21 | interval 2 |
| O=C(c1cc2cc(O)ccc2[nH]1)c1cc2cc(O)ccc2[nH]1 | interval 2 |
| O=C(Nc1nc2ccccc2n1CCN1CCOCC1)c1cccc([N+](=O)[O-])c1 | interval 1 |
| Nc1nc(Nc2ccc(S(N)(=O)=O)cc2)nn1C(=O)c1c(F)cccc1F | interval 2 |
| CC(C)[C@H](CO)Nc1nc(Nc2cc(N)cc(Cl)c2)c2ncn(C(C)C)c2n1 | interval 1 |
| N#C/C(=C1/Nc2ccccc2S1)c1ccnc(NCCc2cccnc2)n1 | interval 1 |
| Nc1ncnc2[nH]nc(Nc3ccc(F)cc3)c12 | interval 3 |
| CN(C)S(=O)(=O)c1ccc2c(c1)/C(=C/c1cc3c([nH]1)CCCC3)C(=O)N2 | interval 3 |
